System: HEK-293T
method: Multiplex assay against HEK293T
Format: toxicity, cell-based
conditionInfo: human, 24 h, 10 µM, compound concentration 10 uM, replicate 1
parameter: Population Normal (%)

{"molecule": "O=C1NC(=O)C(c2cnc3ccccn23)=C1c1cn2c3c(cc(F)cc13)CN(C(=O)N1CCCCC1)CC2", "studySystem": "HEK-293T", "parameter": "Population Normal (%)", "displayUnit": "%", "measured": 85}
{"molecule": "CCN1CCN(c2ccc(Nc3cc(N(C)C(=O)Nc4c(Cl)c(OC)cc(OC)c4Cl)ncn3)cc2)CC1", "studySystem": "HEK-293T", "parameter": "Population Normal (%)", "displayUnit": "%", "measured": 89}
{"molecule": "CN(C)C(=O)C(CCN1CCC(O)(c2ccc(Cl)cc2)CC1)(c1ccccc1)c1ccccc1.Cl [LOPERAMIDE HYDROCHLORIDE]", "studySystem": "HEK-293T", "parameter": "Population Normal (%)", "displayUnit": "%", "measured": 76}
{"molecule": "O=C(Nc1ccc(Cl)cc1)Nc1cccc(-c2cccc(N3CCCC3)n2)c1", "studySystem": "HEK-293T", "parameter": "Population Normal (%)", "displayUnit": "%", "measured": 54}
{"molecule": "COc1cccc2cc(-c3nc([C@H]4CC[C@H](C(=O)O)CC4)n4ncnc(N)c34)[nH]c12", "studySystem": "HEK-293T", "parameter": "Population Normal (%)", "displayUnit": "%", "measured": 85}
{"molecule": "CCn1cc(-c2ccnc3[nH]c(-c4cccc(CN(C)C)c4)cc23)c(-c2ccc(NC(=O)N(C)C)cc2)n1", "studySystem": "HEK-293T", "parameter": "Population Normal (%)", "displayUnit": "%", "measured": 66}
{"molecule": "CCCS(=O)(=O)c1nc(NC2CC2)cc(-c2ccc3c(ccn3C3CC(C)(C)NC(C)(C)C3)c2)n1", "studySystem": "HEK-293T", "parameter": "Population Normal (%)", "displayUnit": "%", "measured": 88}
{"molecule": "O=C(Nc1ccc(-n2nc(-c3cccnc3)cc2C(F)(F)F)cn1)c1ccc(-c2ccccc2)c(F)c1", "studySystem": "HEK-293T", "parameter": "Population Normal (%)", "displayUnit": "%", "measured": 86}
{"molecule": "COc1ccc(-c2ccc3c(N4CCOCC4)nc(N4C[C@@H](C)O[C@@H](C)C4)nc3n2)cc1CO", "studySystem": "HEK-293T", "parameter": "Population Normal (%)", "displayUnit": "%", "measured": 47}
{"molecule": "Cc1ccc(C(=O)Nc2cccc(C(F)(F)F)c2)cc1Nc1nc(-c2cccnc2)nc2c1cnn2C", "studySystem": "HEK-293T", "parameter": "Population Normal (%)", "displayUnit": "%", "measured": 77}
{"molecule": "O=C(Cc1ccc(-c2ccc(OCCN3CCOCC3)cc2)cn1)NCc1ccccc1", "studySystem": "HEK-293T", "parameter": "Population Normal (%)", "displayUnit": "%", "measured": 82}
{"molecule": "C=C1/C(=C\\C=C2/CCC[C@]3(C)[C@@H]([C@H](C)/C=C/[C@H](C)C(C)C)CC[C@@H]23)C[C@@H](O)C[C@@H]1O", "studySystem": "HEK-293T", "parameter": "Population Normal (%)", "displayUnit": "%", "measured": 81}
{"molecule": "CCOc1cc(C(=O)N2CCC(N3CCN(C)CC3)CC2)ccc1Nc1ncc2c(n1)N(C1CCCC1)c1ccccc1C(=O)N2C", "studySystem": "HEK-293T", "parameter": "Population Normal (%)", "displayUnit": "%", "measured": 80}
{"molecule": "CNc1cc(Oc2cc(C(=O)Nc3cc(N4CCN(C)CC4)cc(C(F)(F)F)c3)ccc2C)ncn1", "studySystem": "HEK-293T", "parameter": "Population Normal (%)", "displayUnit": "%", "measured": 73}
{"molecule": "CNC(=O)c1ccc(Nc2nc(OC3CCCC3)c3c(-c4ccc5nc(C)oc5c4)c[nH]c3n2)c(OC)c1", "studySystem": "HEK-293T", "parameter": "Population Normal (%)", "displayUnit": "%", "measured": 84}
{"molecule": "Cc1cn(-c2cc(NC(=O)c3ccc(C)c(Nc4nccc(-c5cccnc5)n4)c3)cc(C(F)(F)F)c2)cn1", "studySystem": "HEK-293T", "parameter": "Population Normal (%)", "displayUnit": "%", "measured": 49}
{"molecule": "COC(=N)c1nc2ccc3ncnc(Nc4ccc(OC)cc4F)c3c2s1", "studySystem": "HEK-293T", "parameter": "Population Normal (%)", "displayUnit": "%", "measured": 91}
{"molecule": "CCOC(=O)c1c(C)[nH]c2ccc3c(c12)CN1CCc2cc(OC)ccc2C1O3 (stereo not given)", "studySystem": "HEK-293T", "parameter": "Population Normal (%)", "displayUnit": "%", "measured": 77}
{"molecule": "CN1CCN(C(=O)C(C)(C)c2ccc(C(=O)Nc3cn4cc(-c5cc(C(C)(C)C)cc(C(C)(C)C)c5)ccc4n3)cc2)CC1", "studySystem": "HEK-293T", "parameter": "Population Normal (%)", "displayUnit": "%", "measured": 78}
{"molecule": "CCCS(=O)(=O)Nc1ccc(F)c(C(=O)c2c[nH]c3ncc(Cl)cc23)c1F", "studySystem": "HEK-293T", "parameter": "Population Normal (%)", "displayUnit": "%", "measured": 93}

---

The reader will find reported Population Membrane Permeable-Phenotype (%) values listed item by item below.
System: HEK-293T
method: Multiplex assay against HEK293T
Type: toxicity, cell-based
conditionInfo: human, 24 h, 1 µM, compound concentration 1 uM, replicate 1
parameter: Population Membrane Permeable-Phenotype (%)

{"compound": "S=C(NCCCc1c[nH]cn1)NCCCN(Cc1ccc(Cl)c(Cl)c1)c1ccc(Br)cn1", "displayUnit": "%", "measured": 8}
{"compound": "Cl.O=C(c1ccc(Nc2nccc(-c3cc4ccccc4s3)n2)cc1)N1CCC(N2CCCC2)CC1", "displayUnit": "%", "measured": 24}
{"compound": "COC(=N)c1nc2ccc3ncnc(Nc4ccc(OC)cc4F)c3c2s1", "displayUnit": "%", "measured": 3}
{"compound": "COc1cc2ncnc(Nc3ccc(F)c(Cl)c3)c2cc1NC(=O)/C=C/CN1CCCCC1 [DACOMITINIB ANHYDROUS]", "displayUnit": "%", "measured": 9}
{"compound": "O=C(Nc1ccc(-n2nc(-c3cccnc3)cc2C(F)(F)F)cn1)c1ccc(-c2ccccc2)c(F)c1 [BI 2049]", "displayUnit": "%", "measured": 6}
{"compound": "O=C(Nc1cccnn1)N1CCC(=Cc2cccc(Oc3ccc(C(F)(F)F)cn3)c2)CC1", "displayUnit": "%", "measured": 12}
{"compound": "CCOc1cc(C(=O)N2CCC(N3CCN(C)CC3)CC2)ccc1Nc1ncc2c(n1)N(C1CCCC1)c1ccccc1C(=O)N2C", "displayUnit": "%", "measured": 3}
{"compound": "Cc1ccc2nc(NCCN)c3ncc(C)n3c2c1.O=C(O)C(F)(F)F.O=C(O)C(F)(F)F", "displayUnit": "%", "measured": 5}
{"compound": "Cl.Oc1ccc2c3c1O[C@H]1c4[nH]c5c(c4C[C@@]4(O)[C@@H](C2)N(CC2CC2)CC[C@]314)C[C@@]1(O)[C@H]2Cc3ccc(O)c4c3[C@@]1(CCN2CC1CC1)[C@H]5O4", "displayUnit": "%", "measured": 0}
{"compound": "CNc1cc(Oc2cc(C(=O)Nc3cc(N4CCN(C)CC4)cc(C(F)(F)F)c3)ccc2C)ncn1", "displayUnit": "%", "measured": 0}
{"compound": "CCn1c(=O)c(-c2ccc(-c3cncs3)cc2Cl)cc2cnc(Nc3ccc(N4CCN(C)CC4)cc3)nc21", "displayUnit": "%", "measured": 2}
{"compound": "CN[C@@H]1C[C@H]2O[C@@](C)([C@@H]1OC)n1c3ccccc3c3c4c(c5c6ccccc6n2c5c31)C(=O)NC4 [STAUROSPORINE]", "displayUnit": "%", "measured": 18}
{"compound": "C=CCn1c(=O)c2cnc(Nc3ccc(N4CCN(C)CC4)cc3)nc2n1-c1cccc(C(C)(C)O)n1 [ADAVOSERTIB]", "displayUnit": "%", "measured": 6}
{"compound": "COCC(=O)NC/C=C/c1ccc2ncnc(Nc3ccc(Oc4ccc(C)nc4)c(C)c3)c2c1 [CP-724714]", "displayUnit": "%", "measured": 19}
{"compound": "CCc1cccc(CC)c1NC(=O)c1nn(C)c2c1CCc1cnc(Nc3ccc(N4CCN(C)CC4)cc3OC)nc1-2", "displayUnit": "%", "measured": 11}
{"compound": "CN1CCN(C(=O)C(C)(C)c2ccc(C(=O)Nc3cn4cc(-c5cc(C(C)(C)C)cc(C(C)(C)C)c5)ccc4n3)cc2)CC1 [T3-CLK-N]", "displayUnit": "%", "measured": 14}
{"compound": "Cc1cc(C)c(S(=O)(=O)N(Cc2ccc(-c3cccc(S(C)(=O)=O)c3)cc2)Cc2ccc(C(F)(F)F)o2)c(C)c1", "displayUnit": "%", "measured": 2}
